These measurements were taken from patent US20240368109A1.

measured on: human α7 nAChR (Homo sapiens (Human), UniProt P36544)
Sequence (P36544 23-502): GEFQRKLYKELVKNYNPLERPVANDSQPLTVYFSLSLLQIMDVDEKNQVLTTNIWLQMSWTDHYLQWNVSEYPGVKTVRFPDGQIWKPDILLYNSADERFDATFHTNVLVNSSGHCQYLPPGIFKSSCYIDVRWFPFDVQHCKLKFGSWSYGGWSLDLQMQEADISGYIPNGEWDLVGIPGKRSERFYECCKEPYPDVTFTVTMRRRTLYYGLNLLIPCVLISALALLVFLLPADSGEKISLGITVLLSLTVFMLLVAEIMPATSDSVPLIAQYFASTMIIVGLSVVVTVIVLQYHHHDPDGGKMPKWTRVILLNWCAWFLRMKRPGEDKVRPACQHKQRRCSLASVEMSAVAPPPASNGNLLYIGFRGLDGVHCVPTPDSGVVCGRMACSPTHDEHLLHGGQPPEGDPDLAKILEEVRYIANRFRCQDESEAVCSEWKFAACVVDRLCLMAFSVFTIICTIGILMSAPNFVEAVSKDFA
procedure summary: Automated patch-clamp electrophysiology functional assay (Assay A)
Format: cell-based
run parameters: electrophysiology EC50 values; IonFlux HT whole-cell population patch, HEK cells expressing human α7/RIC-3, 40 μM acetylcholine
Measured pEC50 accompanies every entry in the list below.
Worth noting: pEC50 values are minus log10 of concentrations stated in mol/L.

{"columns": ["compound", "measured on", "pEC50"],
 "data": [
  ["CCOc1ccc([C@@H](NC(=O)C2C3Oc4ccc(F)cc4C32)C(F)F)cn1 (stereo partly drawn) [Example C9]", "human α7 nAChR (Homo sapiens (Human), UniProt P36544)", 5.96]
]}

// O=C(N[C@@H]1CCc2c(O)cccc21)C1C2Oc3ccc(F)cc3C21 (mixture of isomers) : pEC50 value = 5.80

// CCOc1ccc([C@H](COC)NC(=O)C2C3Cc4ccccc4C32)cc1 (single isomer, unassigned) [Example 1] : pEC50 value = 6.12

// O=C(N[C@@H](C(F)F)C1CCCCC1)C1C2COc3ccc(F)cc3C21 (stereo partly drawn) : pEC50 value = 6.10

// COc1ccc(-c2noc(CNC(=O)C3C4Oc5ccc(F)cc5C43)n2)cn1 (stereo not drawn) : pEC50 value = 6.00

// COc1ccc2c(c1)OCC2NC(=O)C1C2Oc3ccc(F)cc3C21 (stereo not drawn) : pEC50 value = 6.09

// O=C(N[C@H]1CCOc2cc(F)c(F)cc21)C1C2Oc3ccc(F)cc3C21 (stereo partly drawn) : pEC50 value = 5.96

// CCOc1ccc(C2(NC(=O)C3C4Oc5ccc(F)cc5C43)CCC2)cn1 (stereo not drawn) : pEC50 value = 5.25

---

Measured pEC50 accompanies every entry in the list below.
measured on: human α7 nAChR (Homo sapiens (Human))
procedure summary: Automated patch-clamp electrophysiology functional assay (Assay A)
Assay type: cell-based
run parameters: electrophysiology EC50 values; IonFlux HT whole-cell population patch, HEK cells expressing human α7/RIC-3, 40 μM acetylcholine
Worth noting: pEC50 values are minus log10 of concentrations stated in mol/L.

{"columns": ["molecule", "pEC50"],
 "data": [
  ["CCOc1ccc([C@H](COC)NC(=O)C2C3Oc4cc(Br)ccc4C32)cc1 (some centres unmarked)", 6.32]
]}

// O=C(N[C@@H](CO)C1CCCCC1)C1C2COc3ccccc3C21 (some centres unmarked) : pEC50 value = 5.96

// O=C(NCc1nc(-c2ccccc2)no1)C1C2Oc3ccc(F)cc3C21 (centres unmarked) [Example C53] : pEC50 value = 5.82

// O=C(NC1(c2ccc(F)cc2)CC(O)C1)C1C2COc3ccccc3C21 (centres unmarked) : pEC50 value = 5.34

// CCOc1ccc([C@H](COC)NC(=O)C2C3Oc4cccc(Br)c4C32)cc1 (some centres unmarked) [Example B18] : pEC50 value = 6.00

// O=C(NCc1ccccc1OCC1CC1)C1C2Oc3ccc(F)cc3C21 (centres unmarked) : pEC50 value = 6.21

// O=C(NCc1cc(C(F)F)nc(C(F)F)c1)C1C2Oc3ccc(F)cc3C21 (centres unmarked) : pEC50 value = 6.22

// CCOc1ccc([C@H](CF)NC(=O)C2C3COc4ccc(F)cc4C32)cn1 (some centres unmarked) : pEC50 value = 5.82

// O=C(NCc1ccc2ncccc2c1)C1C2Oc3ccc(F)cc3C21 (centres unmarked) : pEC50 value = 5.70

// CCOc1ccc([C@H](COC)NC(=O)[C@@H]2[C@H]3Oc4ccnc(OC)c4[C@H]32)cc1 : pEC50 value = 5.96

// O=C(NCc1cc(F)ccc1F)C1C2Oc3ccc(F)cc3C21 (centres unmarked) : pEC50 value = 5.47

// O=C(NCc1cccc(N2CCCC2)n1)C1C2Oc3ccc(F)cc3C21 (centres unmarked) : pEC50 value = 5.85

// CCOc1ccc([C@H](CO)NC(=O)C2C3COc4ccc(F)cc4C32)cn1 (some centres unmarked) : pEC50 value = 5.66

// CCOc1ccc([C@@H](NC(=O)C2C3Oc4ccc(F)cc4C32)C(F)F)cn1 (some centres unmarked) [Example C5] : pEC50 value = 5.85

---

measured on: human α7 nAChR (Homo sapiens (Human), UniProt P36544)
procedure summary: Automated patch-clamp electrophysiology functional assay (Assay A)
Assay type: cell-based
run parameters: potency class; IonFlux HT whole-cell population patch, HEK cells expressing human α7/RIC-3, 40 μM acetylcholine
pEC50: −log10 of the molar value.
reported endpoint: pEC50

// CCOc1ccc([C@H](CF)NC(=O)C2C3COc4ccc(F)cc4C32)cn1 (stereo partly drawn) : pEC50 value = 5.30 to 6.30

// COc1cc2c(cc1OC)[C@@H](NC(=O)C1C3Oc4ccc(F)cc4C31)COC2 (stereo partly drawn) : pEC50 value = 4.30 to 5.30

// CCOc1ccc([C@H](COC)NC(=O)C2C3Oc4c(Br)cccc4C32)cc1 (stereo partly drawn) [Example B8] : pEC50 value = 6.30 to 7.00

---

measured on: human α7 nAChR (Homo sapiens (Human), UniProt P36544)
procedure summary: Automated patch-clamp electrophysiology functional assay (Assay A)
Assay type: cell-based
run parameters: potency class; IonFlux HT whole-cell population patch, HEK cells expressing human α7/RIC-3, 40 μM acetylcholine
reported endpoint: EC50

// COC(=O)[C@@H](NC(=O)C1C2Oc3ccc(F)cc3C21)c1cccc(F)c1 (mixture of isomers) : EC50 value = 0.5 to 5 µM

// O=C(NCc1cc(-c2ccccc2)no1)C1C2Oc3ccc(F)cc3C21 (stereo not drawn) [Example C48] : EC50 value = 0.5 to 5 µM

// CC(NC(=O)C1C2Oc3ccc(F)cc3C21)c1cccs1 (stereo not drawn) : EC50 value = 0.5 to 5 µM

// CC(NC(=O)C1C2Oc3ccc(F)cc3C21)c1cc2ccccc2o1 (stereo not drawn) : EC50 value = 0.5 to 5 µM

---

measured on: UniProt P36544
procedure summary: Automated patch-clamp electrophysiology functional assay (Assay A)
Type: cell-based
run parameters: electrophysiology EC50 values; IonFlux HT whole-cell population patch, HEK cells expressing human α7/RIC-3, 40 μM acetylcholine
Measured log10 EC50 accompanies every entry in the list below.
log10 EC50, nM

Example results:
{"columns": ["compound", "log10 EC50"],
 "data": [
  ["O=C(NCc1nc(-c2ccccc2)no1)C1C2Oc3ccc(F)cc3C21 (stereo not drawn) [Example 7]", 1.70],
  ["O=C(N[C@H]1CCOc2cc(F)ccc21)C1C2Oc3ccc(F)cc3C21 (stereo partly drawn)", 2.93],
  ["CCOc1ccc([C@H](COC)NC(=O)C2C3Oc4ccc(-c5c(C)noc5C)cc4C32)cc1 (stereo partly drawn)", 3.45]
]}

Considering O=C(NCc1ccc(Oc2ccccn2)cc1)C1C2Oc3ccc(F)cc3C21 (stereo not drawn) , its log10 EC50 with UniProt P36544 was recorded as 2.91

Considering CCOc1ccc([C@H](COC)NC(=O)C2C3Oc4ccc(C#N)cc4C32)cc1 (stereo partly drawn) , its log10 EC50 with UniProt P36544 was recorded as 3.61

Considering O=C(NC1(c2ccc(F)cc2)COC1)C1C2COc3ccccc3C21 (stereo not drawn) , its log10 EC50 with UniProt P36544 was recorded as 3.18

---

Measured EC50 accompanies every entry in the list below.
measured on: human α7 nAChR (Homo sapiens (Human), UniProt P36544)
procedure summary: Automated patch-clamp electrophysiology functional assay (Assay A)
Type: cell-based
run parameters: electrophysiology EC50 values; IonFlux HT whole-cell population patch, HEK cells expressing human α7/RIC-3, 40 μM acetylcholine
Field format: number, assumed nM, no unit text.

Example results:
{"columns": ["compound", "EC50 (nM)"],
 "data": [
  ["CCOc1ccc([C@H](COC)NC(=O)C2C3Oc4cccc(Br)c4C32)cc1 (stereo partly shown) [Example B19]", 72],
  ["O=C(N[C@@H](CCO)c1ccc(F)cc1)C1C2Oc3ccc(F)cc3C21 (stereo partly shown) [Example C30]", 2800],
  ["O=C(NC1(c2ccc(F)cc2)CC1)C1C2COc3ccc(F)cc3C21 (stereo not shown) [Example A9]", 1100]
]}

In the following, a different compound is considered.
Considering O=C(NCc1ccc(F)cc1F)C1C2Oc3ccc(F)cc3C21 (stereo not shown) [Example C23] , its EC50 with human α7 nAChR (Homo sapiens (Human), UniProt P36544) was recorded as 2300

---

measured on: human α7 nAChR (Homo sapiens (Human), UniProt P36544)
procedure summary: Automated patch-clamp electrophysiology functional assay (Assay A)
Format: cell-based
run parameters: potency class; IonFlux HT whole-cell population patch, HEK cells expressing human α7/RIC-3, 40 μM acetylcholine
reported endpoint: EC50

Example results:
{"columns": ["compound", "result"],
 "data": [
  ["CCOc1ccc([C@H](COC)NC(=O)C2C3Cc4ccccc4C32)cc1 (single isomer, unassigned) [Example 1]", "0.5 to 5 µM"],
  ["Cc1ccccc1CNC(=O)C1C2Oc3ccc(F)cc3C21 (centres unmarked) [Example C31]", "0.5 to 5 µM"],
  ["CCOc1ccc([C@H](COC)NC(=O)C2C3Oc4ccc(-c5cncnc5)cc4C32)cc1 (some centres unmarked) [Example B11]", "5 to 50 µM"]
]}

In the following, a different compound is considered.
// O=C(N[C@H]1CCOc2cc(F)c(F)cc21)C1C2Oc3ccc(F)cc3C21 (some centres unmarked) [Example C7] : EC50 value = 0.5 to 5 µM
